test: in vitro; conditions: human, hek293t cells
Note to self: use true (1) only for viability at 48 h, 25 µM readings below 60%; a reading exactly at 60% still gets false (0).

Take a look at these entries with their results.
# COMPOUND, LABEL_VALUE
data = [
    ("C=CC(=O)N1CCCC(CNC(C)=O)C1 (stereo not shown)", "true (1)"),
    ("N#CC(=Cc1ccccc1O)C(=O)Nc1cccc2ncccc12", "false (0)"),
]

Here's an entry: CCCn1c(C)cc(C=C(C#N)C(=O)Nc2cccc(F)c2)c1C . Is its viability at 48 h, 25 µM below 60%?
false (0)

A record lists Cc1ccc(C2CC(c3cccs3)=NN2C(=O)CCl)cc1 (stereo not shown) . Is its viability at 48 h, 25 µM below 60%?
true (1)

* * *

experiment: in vitro; details: human, hek293t cells
Field: label. Allowed values: yes (viability at 48 h, 25 µM < 80%) or no (viability at 48 h, 25 µM >= 80%).

Consider the following illustrative entries.
# COMPOUND, LABEL_VALUE
data = [
    ("C=CC(=O)NCc1cnc(CC(C)C)s1", "no"),
    ("O=C(CCl)NCc1ccccc1CN1CCCC1=O", "yes"),
    ("C=CC(=O)Nc1cnn(CCN2CCCC2=O)c1", "no"),
    ("O=C(CCl)Nc1c(F)c(F)c(F)c(F)c1F", "yes"),
    ("C=CC(=O)N1CCC(c2nc(C)no2)CC1", "yes"),
    ("CC(Cl)C(=O)c1ccc(C(C)(C)C)cc1 (centres unmarked)", "yes"),
    ("Cc1cc(CN(C(=O)CCl)c2cn(C)nn2)ccc1Cl", "yes"),
    ("O=C(CCl)Nc1cccc(S(=O)(=O)NC2=NCCCCC2)c1", "yes"),
]

Find out if reported viability at 48 h, 25 µM for CCc1nc2cc(CNC(=O)C(C)Cl)ccc2n1C1CC1 (centres unmarked) is less than 80%
no

Strictly below 80% in viability at 48 h, 25 µM? CC(Cl)C(=O)N(CCC#N)c1ccccc1 (centres unmarked)
no

Quick check: viability at 48 h, 25 µM of O=C(CCl)Nc1cc(C(F)(F)F)ccc1Cl under 80%?
yes

Is viability at 48 h, 25 µM of COc1cc(C=C(C#N)C(=O)NC2CC2)cc(OC)c1O strictly below 80%?
no

Take the compound C=CC(=O)N1CCC(C(=O)NC[C@H]2C[C@@H](O)C2)(c2ccccc2)CC1 and say whether its viability at 48 h, 25 µM is less than 80%.
no

Below 80% on viability at 48 h, 25 µM? Entry COc1cc(C=C(C#N)C(=O)Nc2ccc3c(c2)OCCO3)ccc1O
no

# TODO verify viability at 48 h, 25 µM < 80% strictly for this compound: N#CC(=Cc1cn(-c2ccccc2)nc1-c1ccccc1Cl)C(N)=O
no

Please determine if CN(C(=O)CCl)C1CCCCC1 [5-N07, 2-chloro-N-cyclohexyl-N-methylacetamide] is below 80% in terms of viability at 48 h, 25 µM.
yes

Threshold test, viability at 48 h, 25 µM < 80%: C=CC(=O)N1CCOCC1c1noc(C)n1 (centres unmarked)
yes

* * *

assay: in vitro; conditions: human, hek293t cells
viability at 48 h, 25 µM vs 70%: less than gives Condition met; not less than gives Condition not met.

Study these solved cases before continuing.
# COMPOUND, LABEL_VALUE
measured = [
    ("CC(Cl)C(=O)NC1CCc2nc(-c3cc(F)ccc3F)cn2C1 (centres unmarked) [7-K10]", "Condition not met"),
    ("Cc1ccc(C=C(C#N)C(=O)Nc2ccc(N3CCOCC3)cc2)s1 [8-A06]", "Condition not met"),
    ("C=CC(=O)N1CCOC(c2ccccc2Cl)C1 (centres unmarked) [1-P20]", "Condition not met"),
    ("N#CC(=Cc1ccncc1)C(=O)Nc1cccc(Cl)c1 [8-B19]", "Condition not met"),
]

Consider the compound C=CC(=O)NCc1cc(-c2ccco2)on1 [1-A21] . Is its viability at 48 h, 25 µM strictly less than 70%?
Condition not met

Quick check: viability at 48 h, 25 µM of N#CC(=Cc1ccc(O)c([N+](=O)[O-])c1)C(=O)NCc1ccccc1 [8-O05] under 70%?
Condition not met

Consider Cc1cc(C(=O)CCl)c(C)n1-c1cccc([N+](=O)[O-])c1 [10-B16] . Does its viability at 48 h, 25 µM lie strictly below 70%?
Condition met

State whether 70% exceeds viability at 48 h, 25 µM recorded for CC(Cl)C(=O)N(c1cccc(C#N)c1)C1CCC1 (centres unmarked) [6-N22] .
Condition not met

Find out if reported viability at 48 h, 25 µM for COc1ccc(NC(=O)c2ccccc2NC(=O)CCl)cc1 [4-L05] is less than 70%
Condition met

Below 70% on viability at 48 h, 25 µM? Entry C=CC(=O)N1CCC(C(=O)NCc2ccc(Cl)cc2Cl)CC1 [1-E20]
Condition not met

* * *

test: in vitro; conditions: human, hek293t cells
viability at 48 h, 25 µM overview
Report only the number, with the unit % understood.

Guide cases for viability at 48 h, 25 µM, answers given:
# COMPOUND, viability at 48 h, 25 µM, %
measured = [
    ("CSc1cc(C(=O)CCl)ccc1NC(C)=O", 8.39),
    ("CC(C)C(NC(=O)CCl)c1ccc(F)c(C#N)c1 (centres unmarked)", 1.83),
    ("O=C(CCl)COc1ccc(Cl)cc1", 26.1),
]

Now consider the entry below.
Which viability at 48 h, 25 µM is reported for this compound? O=C(CCl)NC1CCN(Cc2ccccc2)CC1
1.13

* * *

viability at 48 h, 25 µM reference
experiment: in vitro; conditions: human, hek293t cells
Write it as a number; the unit % goes unstated.

Completed entries (count: 2):
# COMPOUND_SMILES, viability at 48 h, 25 µM, %
data = [
    ("CN(CC1CCCCC1)C(=O)C(C)(C)NC(=O)CCl", 61.9),
    ("O=C(CCl)Nc1cc(S(=O)(=O)N2CCOCC2)ccc1O", 116),
]

Look at this compound and give its reported viability at 48 h, 25 µM. Cc1cc(C(=O)CCl)c(C)n1-c1ccc2c(c1)OCO2
22.4

Please report the recorded viability at 48 h, 25 µM for C=CC(=O)N1CCC(C(=O)N[C@@H](C)c2ccc(Cl)s2)CC1 .
65.7

For C=CC(=O)N1CCC(C(=O)Oc2ccc(NC(C)=O)cc2)CC1 , what is its reported viability at 48 h, 25 µM?
93.3

* * *

experiment: in vitro; settings: human, hek293t cells
Lab note - cut at 90% for viability at 48 h, 25 µM: class 1 if strictly below, class 0 if not.

Observe how each entry below is paired with its result.
# COMPOUND, LABEL_VALUE
records = [
    ("NC(=O)COc1ccc(C(=O)CCl)cc1 [10-M07, 2-[4-(2-chloroacetyl)phenoxy]acetamide]", "class 1"),
    ("COc1cc(C=C(C#N)C(=O)Nc2ccccn2)ccc1O", "class 0"),
    ("C=CC(=O)N[C@H]1CCCC[C@H]1n1cc(C(C)(C)O)nn1", "class 0"),
    ("CC(C1CC1)N(Cc1ccccc1)C(=O)CCl (centres unmarked)", "class 1"),
    ("CC(=O)NCCc1ccc(C(=O)C(C)Cl)cc1 (centres unmarked)", "class 1"),
    ("CC(Cl)C(=O)N1CC(c2cc(CO)on2)C1 (centres unmarked)", "class 1"),
    ("CC(Cl)C(=O)Nc1c(C(C)C)cccc1C(C)C (centres unmarked)", "class 0"),
    ("O=C(CCl)NCc1cc(O)ccc1Cl", "class 1"),
]

Determine if CC(Cl)C(=O)N1CCCC1CC(=O)c1cnn(C)c1 (centres unmarked) shows viability at 48 h, 25 µM strictly lower than 90%.
class 0

Quick check: viability at 48 h, 25 µM of C=CC(=O)NCC1CCCCN1S(C)(=O)=O (centres unmarked) under 90%?
class 0

* * *

test: in vitro; settings: human, hek293t cells
Measured viability at 48 h, 25 µM accompanies every entry in the list below.
Unit % implied. Number only.

The following compounds have reported results that may help.
# COMPOUND, viability at 48 h, 25 µM / %
records = [
    ("Cc1cc(C)c(C=C(C#N)C(=O)Nc2nccs2)cc1C", 113),
    ("CN1CCN(C(=O)Cc2cccc(NC(=O)CCl)c2)CC1", 1.44),
]

Fill in the blank: the reported viability at 48 h, 25 µM of CCN(Cc1ccccc1)C(=O)CCl [6-O21, N-benzyl-2-chloro-N-ethylacetamide] is ____.
1.53

Reported viability at 48 h, 25 µM, compound COc1ccccc1NC(=O)C(C)Cl (stereo not shown) [5-L20, 2-chloro-N-(2-methoxyphenyl)propanamide] : ____
91.3

What value of measured viability at 48 h, 25 µM is listed for COc1ccc(S(=O)(=O)N2CCCCC2)cc1NC(=O)CCl ?
1.34

Name the recorded viability at 48 h, 25 µM for CC(Cl)C(=O)NCCC1=CCCCCC1 (stereo not shown) .
120

Give the measured viability at 48 h, 25 µM of Cc1cc(C)n2c(-c3c(Cl)cccc3NC(=O)CCl)nnc2n1 .
1.81
